// provenance: paper PMC12305496

test system: HEK293T cells; assay: MTT cytotoxicity assay, HEK293T; assay type: cell-based, human; details: 24 h, Table 2 (bilosome comparison)
Outcome Measure: IC50 (µM)

INSERT INTO assay_data (compound, measured_on, result_value) VALUES
  ('[NH2][Pt]([NH2])([Cl])[Cl] [CDDP, cisplatin, reference compound]', 'HEK293T cells', 21);
